system: HEK-293T; experiment: Multiplex assay against HEK293T; format: toxicity, cell-based; details: human, 24 h, 1 µM, compound concentration 1 uM, replicate 1
Parameter Population Normal (%): see the listing below.
Kindly provide the numeric value in % only, without the unit symbol.

Here are 2 compounds together with their reported answers.
CC(C)COc1ccc(CNC(=O)N(Cc2ccc(F)cc2)C2CCN(C)CC2)cc1    93
N#Cc1c(Oc2cccc(OS(=O)(=O)CCCC(F)(F)F)c2)cccc1C(F)(F)F    96

Query: Population Normal (%); subject: Cl.NCCc1ccc(O)c(O)c1 [DOPAMINE HYDROCHLORIDE]
95

Query: Population Normal (%); subject: COc1cccc2c1c(NS(=O)(=O)c1ccc(Cl)s1)nn2Cc1cccc(CNC(=O)C(C)(C)O)c1
97

Query: Population Normal (%); subject: O=C(CCCc1ccccc1)Nc1nc2ccccc2c(=O)s1
94

Query: Population Normal (%); subject: Cc1c(CC(=O)O)c2cccnc2n1Cc1ccc(S(C)(=O)=O)cc1C(F)(F)F
96

Query: Population Normal (%); subject: Cc1sc2c(c1C)C(c1ccc(Cl)cc1)=N[C@@H](CC(=O)NCCCCCCCCNC(=O)COc1cccc3c1C(=O)N(C1CCC(=O)NC1=O)C3=O)c1nnc(C)n1-2 (stereo partly drawn)
93

Query: Population Normal (%); subject: CC(C)c1noc(N2CCC(COc3ccc(-c4ccc(S(C)(=O)=O)cc4)nc3)CC2)n1
94

----------
Parameter Population Tubulin-Different-Phenotype (%): see the listing below.
test system: Fibroblast; assay: Multiplex assay against human fibroblast; type: toxicity, cell-based; conditions: 12 h, 10 µM, compound concentration 10 uM, replicate 2
Kindly provide the numeric value in % only, without the unit symbol.

Here are 5 molecules together with their reported answers.
COC[C@@H](c1ccc(C(F)(F)F)cc1)N1CCN(C2(C)CCN(C(=O)c3c(C)ncnc3C)CC2)C[C@@H]1C.O=C(O)/C=C\C(=O)O [VICRIVIROC MALEATE]    67
N#Cc1c(Oc2cccc(OS(=O)(=O)CCCC(F)(F)F)c2)cccc1C(F)(F)F    75
CC[C@@H](C)Nc1nc(C)nc2c(-c3ccc(OC)nc3C)c(C)nn12    68
COc1cccc2c1c(NS(=O)(=O)c1ccc(Cl)s1)nn2Cc1cccc(CNC(=O)C(C)(C)O)c1    55
CN(C)C(=O)Cn1cc(-c2ccc(-c3cncc4ccccc34)cc2)cn1    81

Query: Population Tubulin-Different-Phenotype (%); subject: CCC(=O)N1CCN(c2ccc(-n3c(=O)ccc4cnc5ccc(-c6cnc7ccccc7c6)cc5c43)cc2C(F)(F)F)CC1
64

Query: Population Tubulin-Different-Phenotype (%); subject: Cc1onc(-c2ccccc2Cl)c1C(=O)N(C)c1ccc(Cl)cc1
64

Query: Population Tubulin-Different-Phenotype (%); subject: Cc1cccc(NC(=O)CN2CCC(c3ccccn3)CC2)c1.Cl.Cl
56

Query: Population Tubulin-Different-Phenotype (%); subject: Br.CS(=O)(=O)Nc1c(O)ccc2c1CCCC2C1=NCCN1 (configuration not stated)
43

Query: Population Tubulin-Different-Phenotype (%); subject: N#Cc1cc(F)cc(-c2nc(-c3ccc(F)cn3)no2)c1
36

Query: Population Tubulin-Different-Phenotype (%); subject: Cl.N=C(N)NC(=O)Cc1c(Cl)cccc1Cl [GUANFACINE HYDROCHLORIDE]
46

Query: Population Tubulin-Different-Phenotype (%); subject: CC(C)(C)c1cc(NC(=O)Nc2ccc(-c3cn4c(n3)sc3cc(OCCN5CCOCC5)ccc34)cc2)no1
70
